// reported Neut IC50 subtype B for each item listed
# targetSystem: RSV F protein of subtype B (18537) on recombinant mKate-RSV (respiratory syncytial virus subtype B …, UniProt P13843 26-574)
# test: cell-based or functional assay
metric: Neut IC50 subtype B

| binder | metric | recordedResult |
| --- | --- | --- |
| ADI-18980 (antibody, V domains shown, full-length IgG; also called Antibody Number 328) VH: QVQLVQSGAEVKKPGESLKISCKGFGYSFNSYWIAWVRQMPGKGLECMGIIYPGDSDTRYSPSFQGQVTISVDKSITTAYLQWSSLKVSDTAMYYCAKSNVGNTGWNYWGQGTLVTVSS VL: EIVLTQSPATLSLSPGERATLSCRASHSVATDLAWYQQKPGQAPRLLIYDASKRATDVPARFSGSGSGTDFTLTISSLEPEDVAVYYCQEVRNWPPCTFGQGTKVDIK | Neut IC50 subtype B | > 10 µg/mL |
| ADI-19014 (antibody, V domains shown, full-length IgG; also called Antibody Number 362) VH: EVQLVESGPRLVKPSQTLSLTCTVYGGSISGGQNYYSWVRQPPGKGLEWIGYIFSSGTTYYKPSLKSRISISFDTSKNQFSLNLASVTAADTAVYFCARSADIDIVWGSSLYMPLWGQGTLVTVSS VL: EIVLTQSPGTLSLSPGQRATLSCRATHIVSNSYLAWYQQKPGQAPRLLIHGVSIRATGIPDRFSGSGSGTDFTLTISRLEPEDFAVYFCQQYGTSPWTFGQGTKLEIK | Neut IC50 subtype B | > 10 µg/mL |
| ADI-18996 (antibody, V domains shown) VH: QVQLVQSGAEVKRPGASVKVSCKASEYAFTAHYLHWVRQAPDQGLEWMGWISPKSGGTNYAQKFHGRVSMTSDTSISTVYMELSSLTSDDTAVYYCARSSLVGASPNFDFWGQGTLVTVSS VL: QSVVTQPPSVSAAPGQRVTISCSGSSSNIGNNYVSWYQQLPGSTPKVLIYDNNQRPSGIPDRFSGSKSGTSATLAISGLQTGDEAVYYCGTWDASLSAAMVFGGGTKLTVL | Neut IC50 subtype B | > 10 µg/mL |

Hello, the source for this data is patent US20200223906A1, in case you need it.
